Data provenance: PubChem BioAssay (NCI)

- System: UACC-62 melanoma
- protocolDetails: NCI-60 one-dose screen, 48 h
- details: 10 µM unless noted
This is part of a sample that, as a whole, favours compounds with a hit. Of some 83,000 tested, about 20% had one in any assay. Active and inactive are the calls of the source. Rule for the calls: active = growth percent below 10; inactive = the rest.
Answer with one of the outcomes 1 = active, 0 = inactive

compound=CCCOc1nc(SCCC)nc2c1cnn2-c1ccccc1 discretelabel=0

Please examine the following record next.
What was the test verdict on Cc1cccc(C)c1-c1cc(Cc2ccc(Cl)cc2)c(=O)[nH]n1 ?
0

----------
- Test system: KM12 colon
- protocolDetails: NCI-60 one-dose screen, 48 h
- details: 10 µM unless noted
About 83,000 compounds went through this panel and 20% of them were active in at least one assay; those are over-represented in the sample as a whole. Calls of active or inactive are those of the source. The calls were made as follows: active = growth percent below 10; inactive = the rest.
Output constraint: value belongs to active, inactive

Known results for compounds:
compound=COc1cc2nc(-c3ccc(C(F)(F)F)cc3)cc(OCCN3CCCC3)c2cc1OC discretelabel=inactive
compound=CN1CCN(c2ccc3nc(-c4cc(C(C)(C)C)c(O)c(C(C)(C)C)c4)[nH]c3c2)CC1 discretelabel=inactive
compound=COc1ccc(-c2nc(SC(C)C)nc(NNC(N)=O)c2C#N)cc1 discretelabel=inactive
compound=COc1c(Cl)cc(Cl)c2ccc(C=C3C(=O)N(C)C(=O)N(C)C3=O)nc12 discretelabel=inactive
compound=CC(=O)[C@@H]1CC[C@]2(C(N)=O)CC[C@]3(C)[C@H](CC[C@@H]4[C@@]5(C)CCC(=O)C(C)(C)[C@@H]5CC[C@]43C)[C@@H]12 discretelabel=inactive

Short answer needed: outcome of this test for COc1ccccc1C(C[N+](=O)[O-])c1c(-c2ccccc2)[nH]c2cc(C)ccc12 (stereo not given) ?
inactive

Hello, I am checking results. What call was entered for CC(=O)c1c(-c2ccc(OC(F)(F)F)cc2)nc2ccccn12 ?
inactive

Which outcome was entered for the compound O=C(NCCN1CCOCC1)OCc1nc2nc(Cl)nc(N3CCOCC3)c2[nH]1 in this test?
active

What classification did Cc1c2c(cc[n+]1Cc1ccccc1)c1ccc(OCc3ccccc3)cc1n2Cc1ccccc1 end up with in this test?
active

Write down the call the test reported for this compound. Item: COc1ccc(C(=O)/C=C/c2ccc(OCc3ccccc3)c(OC)c2)cc1OC
inactive

Kindly provide the recorded test outcome for the following compound: COc1cc(/C=C2\C(=O)N(Cc3ccc(Cl)cc3)c3ccccc32)cc(OC)c1OC
inactive

Recorded test outcome, item CSc1nnc2c(=O)n(C)c(=O)n(C)c2n1
inactive

Identify the outcome logged in this assay for the compound shown: CCOC(=O)c1cnc2c(cnn2CC)c1NN=C(C)C
inactive

What classification did Fc1ccc(C2CC(c3cccc(Nc4ccncc4)c3)=NN2c2ccccc2)cc1 (stereo not given) end up with in this test?
active

Short answer needed: outcome of this test for CC(c1ccccc1)n1ccnc1CO (stereo not given) ?
inactive

# outcome recorded in this test, key = CCn1cc(C2NC(=O)c3ccccc3N2)c2cccc(C)c21 (stereo not given)
inactive

Test call, this compound: COC(=O)CCCCCCCCC1(C)C=CC(C(C)O)=CC1 (stereo not given)
inactive

Per the assay record, what outcome was assigned to CCN(CCNc1cc(OC)cc2cccnc12)CCc1ccccc1 ?
inactive

----------
- Tested on: EKVX NSCLC
- protocolDetails: NCI-60 one-dose screen, 48 h (100 = growth as untreated, 0 = no growth, -100 = all killed)
- details: 10 µM unless noted
The panel holds about 83,000 compounds, 20% with a hit somewhere; the sample as a whole holds those more often. Active and inactive are the calls of the source. The calls were made as follows: active = growth percent below 10; inactive = the rest.
outcomeMeasure: growth

compound=O=c1[nH]c(=O)[nH]c(=S)[nH]1 measuredresult="97.8% (inactive)"
compound="CC(C)NC(=O)N1C(=O)CCC1NNC(=O)c1ccc([N+](=O)[O-])cc1 (stereo not given)" measuredresult="110% (inactive)"
compound=O=C(N/N=C/c1ccncc1)c1ccccc1Nc1cccc(C(F)(F)F)c1 measuredresult="91.7% (inactive)"
compound=COc1cccc(CCC(=O)c2cc3c(N)c(C(=O)Nc4ccccc4)sc3nc2C)c1 measuredresult="45.4% (inactive)"
compound=COc1cc(NCCCN(CC(C)C)CC(C)C)c2ncccc2c1 measuredresult="84.5% (inactive)"
compound=COc1ccc(-c2nc(SCCC(C)C)nc(N/N=C(/C)c3ccc(C)cc3)c2C#N)cc1 measuredresult="90.8% (inactive)"

Identify growth associated with the compound CCCCCN1C=C/C(=C\C(=O)N(C)c2cccc3ccccc23)c2ccccc21
89.1% (inactive)

Quickly give me recorded growth for CC1(C)NCCC[C@]2(C)[C@H]3CC=C4[C@@H]5C[C@@](C)(CO)CC[C@]5(C)CC[C@@]4(C)[C@]3(C)CC[C@@H]12
86.5% (inactive)

Return growth (reported value) for this compound: COc1cc2oc(-c3cccc(C(=O)Nc4ccc(Cl)cc4)c3)cc(=O)c2c(OC)c1OC
48.2% (inactive)

Read off the recorded growth for CCOc1ccc(/C=N/Nc2cc(C)nc3ccc(Cl)cc23)cc1
81.7% (inactive)
